Biological target: EP300 (P300(1048-1664)) (Homo sapiens, UniProt Q09472)
Construct: P300(1048-1664)
Sequence (Q09472 1048-1664): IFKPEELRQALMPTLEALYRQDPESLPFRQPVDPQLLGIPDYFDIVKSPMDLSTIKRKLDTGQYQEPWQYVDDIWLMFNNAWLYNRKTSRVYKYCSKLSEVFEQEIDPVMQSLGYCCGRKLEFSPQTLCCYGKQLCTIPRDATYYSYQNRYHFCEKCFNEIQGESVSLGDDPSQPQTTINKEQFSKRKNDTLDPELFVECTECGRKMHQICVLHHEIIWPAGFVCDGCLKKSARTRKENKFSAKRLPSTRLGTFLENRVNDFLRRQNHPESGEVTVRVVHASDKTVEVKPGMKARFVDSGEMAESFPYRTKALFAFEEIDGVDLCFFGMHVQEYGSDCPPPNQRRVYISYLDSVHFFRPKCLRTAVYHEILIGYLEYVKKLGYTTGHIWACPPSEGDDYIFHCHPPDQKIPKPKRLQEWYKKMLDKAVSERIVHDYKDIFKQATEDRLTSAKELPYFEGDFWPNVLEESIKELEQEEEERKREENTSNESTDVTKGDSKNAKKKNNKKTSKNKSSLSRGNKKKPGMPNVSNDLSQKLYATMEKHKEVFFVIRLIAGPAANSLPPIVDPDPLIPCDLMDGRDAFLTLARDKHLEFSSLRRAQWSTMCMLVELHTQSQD
Assay: Biochemical assay for EP300, SAMDI
Conditions: EP300, SAMDI; read-out: EP300 Biochemistry IC50
pIC50: −log10 of the molar value.
Decision: pIC50 >= 7 yields label 1, all other cases yield label 0.

mol: CCn1ncc(CN(C)C(=O)c2nc(-c3ccc(O[C@@H]4CNC[C@H]4O)cc3Cl)nc3ccc(Cl)cc23)c1C
cat: label 1
//
mol: Cc1c(CN(C)C(=O)c2nc(-c3cc(Cl)cc(CNC4CCCCC4)c3)nc3ccc(Cl)cc23)cnn1CO
cat: label 0
//
mol: CCn1ncc(CN(C)C(=O)c2nc(-c3ccnc(Cl)c3)nc3ccc(NC)cc23)c1C
cat: label 0
//
mol: CCn1ncc(CN(C)C(=O)c2nc(-c3ccc(OCCNC)c(Cl)c3)nc3ccc(C(F)F)cc23)c1C
cat: label 1
//
mol: CCc1ncc(CN(C)C(=O)c2cc(-c3cc(-c4ncc[nH]4)n(C)n3)nc3ccc(COC)cc23)n1C
cat: label 1
//
mol: CCn1ncc(CN(C)C(=O)c2nc(-c3ccc(OCCN(C)C(=O)OC(C)(C)C)c(OC)c3)nc3ccc(Cl)cc23)c1C
cat: label 0
//
mol: CCn1ncc([C@H](C)N(C)C(=O)c2cc(-c3ccc(NCCNC)c(C)n3)nc3ccc(Cl)cc23)c1C
cat: label 0

###

Tested on: H3K18Ac in HB-CLS-2 cells
Assay: H3K18AC in-cell western (ICW) assay
Format: cell-based
Conditions: H3K18Ac in-cell western; read-out: CREBBP ICW IC50
Excerpt: The following example describes methods and materials relating to an H3K18AC in-cell western assay. IC50 values (micromolar (μM)) are summarized in Table 1, Table 2, and Table 3 under the column labeled: “CREBBP ICW IC50 (micromolar).” […] METHOD: Cell Treatment, ICW for detection of H3K18Ac and DNA content. […] Plates were allowed to dry at room temperature then imaged on the Licor Odyssey CLx machine which measured integrated intensity at 700 nm and 800 nm wavelengths. […]
assayMetric: IC50 (nM)

molecule: CCn1ncc(CN(C)C(=O)c2cc(-c3ccc(NCCNC)c(C)n3)nc3ccc(C4CC4)cc23)c1C
tgt: H3K18Ac in HB-CLS-2 cells
measuredValue: 221
--
molecule: CCn1ncc(CN(C)C(=O)c2nc(-c3ccc(OCCNC(C)=O)c(Cl)c3)nc3ccc(Cl)cc23)c1C
tgt: H3K18Ac in HB-CLS-2 cells
measuredValue: 290
--
molecule: CCn1ncc(CN(C)C(=O)c2nc(-c3cc(-c4ncc[nH]4)n(C)n3)nc3ccc(Cl)cc23)c1C
tgt: H3K18Ac in HB-CLS-2 cells
measuredValue: 153
--
molecule: CCn1ncc([C@@H](C)N(C)C(=O)c2cc(-c3ccc(NCCN(C)C)c(C)n3)nc3ccc(Cl)cc23)c1C
tgt: H3K18Ac in HB-CLS-2 cells
measuredValue: 85
--
molecule: CCc1ncc(CN(C)C(=O)c2cc(-c3ccc(NCCN(C)C)c(C)n3)nc3ccc(Cl)cc23)n1C
tgt: H3K18Ac in HB-CLS-2 cells
measuredValue: 85.4
--
molecule: CCn1ncc(CN(C)C(=O)c2nc(-c3ccc(OCC(O)CNC)cc3Cl)nc3ccc(Cl)cc23)c1C (stereo not shown)
tgt: H3K18Ac in HB-CLS-2 cells
measuredValue: 180
--
molecule: CCn1ncc(CN(C)C(=O)c2nc(-c3ccnc(NC(C)=O)c3)nc3ccc(Cl)cc23)c1C
tgt: H3K18Ac in HB-CLS-2 cells
measuredValue: 5100

###

Molecular target: CREBBP (1084-1701) (Homo sapiens)
Construct: measured in the following biochemical assay using CREBBP (1084-1701); purchased
Assay: Biochemical assay for CREBBP (1084-1701), SAMDI
Conditions: SAMDI, read-out: CREBBP Biochemistry IC50
pIC50: −log10 of the molar value.
assayMetric: pIC50

molecule: CCn1ncc(CN(C)C(=O)c2nc(-c3cc(C)c4n[nH]cc4c3)nc3ccc(Cl)cc23)c1C
assayMetric: pIC50
measuredValue: 7.57
//
molecule: CCn1ncc(CN(C)C(=O)c2nc(N3CCn4cc(C)nc4C3)nc3ccc(Cl)cc23)c1C
assayMetric: pIC50
measuredValue: 3.85
//
molecule: CCn1ncc(CN(C)C(=O)c2nc(-c3ccc(OCC(O)CNC)cc3Cl)nc3ccc(Cl)cc23)c1C (stereo not shown)
assayMetric: pIC50
measuredValue: 7.57
//
molecule: CCn1ncc(CN(C)C(=O)c2nc(-c3cc(CNC)n(C)n3)nc3ccc(Cl)cc23)c1C
assayMetric: pIC50
measuredValue: 4.60

###

Target: CREBBP (1084-1701) (Homo sapiens, UniProt Q92793)
Construct: measured in the following biochemical assay using CREBBP (1084-1701); purchased
Sequence (Q92793 1084-1701): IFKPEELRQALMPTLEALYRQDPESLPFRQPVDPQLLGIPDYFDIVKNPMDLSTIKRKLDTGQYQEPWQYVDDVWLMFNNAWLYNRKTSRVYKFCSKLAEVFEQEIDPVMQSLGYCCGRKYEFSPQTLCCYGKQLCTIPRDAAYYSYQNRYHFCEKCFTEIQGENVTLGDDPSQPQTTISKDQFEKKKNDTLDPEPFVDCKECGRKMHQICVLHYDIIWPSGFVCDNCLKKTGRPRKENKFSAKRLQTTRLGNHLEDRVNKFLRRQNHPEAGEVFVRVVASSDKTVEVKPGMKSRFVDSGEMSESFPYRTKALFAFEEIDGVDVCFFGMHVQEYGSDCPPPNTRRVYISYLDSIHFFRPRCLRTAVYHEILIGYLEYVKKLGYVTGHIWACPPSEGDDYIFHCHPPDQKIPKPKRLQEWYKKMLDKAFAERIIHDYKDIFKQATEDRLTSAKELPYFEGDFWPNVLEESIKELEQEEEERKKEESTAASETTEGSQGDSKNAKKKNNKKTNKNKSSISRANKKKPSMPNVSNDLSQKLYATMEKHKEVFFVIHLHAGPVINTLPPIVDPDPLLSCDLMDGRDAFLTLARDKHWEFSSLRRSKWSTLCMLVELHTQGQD
Experiment: Biochemical assay for CREBBP (1084-1701), SAMDI
Conditions: SAMDI, read-out: CREBBP Biochemistry IC50
Procedure: The following example describes materials and methods relating to a biochemical assay for CREBBP (1084-1701). IC50 values (micromolar (μM)) are summarized in Table 1, Table 2, and Table 3 under the column labeled: “CREBBP Biochemistry IC50 (micromolar).” […] METHODS: The effect of compounds was measured in the following biochemical assay using CREBBP (1084-1701). […] The SAMDI biochip was then read on the mass spectrometer.
pIC50: −log10 of the molar value.
assayMetric: pIC50

compound: CCn1ncc(CN(C)C(=O)c2nc(-c3ccc(NCCNC)c(C)n3)nc3ccc(Cl)cc23)c1C [Compound 79]
assayMetric: pIC50
measuredValue: 6.17
//
compound: CCn1ncc(CN(C)C(=O)c2cc(-c3ccc(NCCS(C)(=O)=O)c(C)n3)nc3ccc(Cl)cc23)c1C [Compound 625]
assayMetric: pIC50
measuredValue: 7.72
//
compound: CCn1ncc(CN(C)C(=O)c2nc(-c3cc4c(N)[nH]nc4cc3C)nc3ccc(COC)cc23)c1C [Compound 508]
assayMetric: pIC50
measuredValue: 7.33
//
compound: CCn1ncc(CN(C)C(=O)c2cc(-c3ccc(OCCCO)cn3)nc3ccc(Cl)cc23)c1C [Compound 166]
assayMetric: pIC50
measuredValue: 4.55
//
compound: CCn1ncc(CN(C)C(=O)c2nc(-c3cc(C)nc(NCCOC)c3)nc3ccc(Cl)cc23)c1C [Compound 611]
assayMetric: pIC50
measuredValue: 7.13
//
compound: CCOc1ccc2nc(-c3cccc(Cl)c3)cc(C(=O)N(C)Cc3cnn(CC)c3C)c2c1 [Compound 319]
assayMetric: pIC50
measuredValue: 3.92
//
compound: CCn1ncc(CN(C)C(=O)c2nc(-c3ccc(OCCN(C)S(C)(=O)=O)c(OC)c3)nc3ccc(Cl)cc23)c1C [Compound 114]
assayMetric: pIC50
measuredValue: 5.28
//
compound: CCn1ncc(CN(C)C(=O)c2nc(-c3ccc(OCCCN(C)C(=O)OC(C)(C)C)c(OC)c3)nc3ccc(Cl)cc23)c1C [Compound 355]
assayMetric: pIC50
measuredValue: 5.42
//
compound: CCn1ncc(CN(C)C(=O)c2nc(-c3ccc(OCCNC)c(Cl)c3)nc3ccc(C(F)F)cc23)c1C [Compound 441]
assayMetric: pIC50
measuredValue: 7.30
//
compound: CCn1ncc(CN(C)C(=O)c2cc(-c3ccc(N(C)C)nn3)nc3ccc(Cl)cc23)c1C [Compound 502]
assayMetric: pIC50
measuredValue: 4.97
//
compound: CCn1ncc(CN(C)C(=O)c2nc(-c3cc(C#N)c4nc[nH]c4c3)nc3ccc(COC)cc23)c1C [Compound 475]
assayMetric: pIC50
measuredValue: 6.04
//
compound: CCn1ncc(CN(C)C(=O)c2nc(-c3cc(Cl)cc(NCCNC)c3)nc3ccc(Cl)cc23)c1C [Compound 14]
assayMetric: pIC50
measuredValue: 7.85
//
compound: CCn1ncc(CN(C)C(=O)c2nc(-c3cc(CNC)nn3C)nc3ccc(Cl)cc23)c1C [Compound 403]
assayMetric: pIC50
measuredValue: 4.30
//
compound: CCn1ncc(CN(C)C(=O)c2cc(-n3ncc4c3CNCC4)nc3ccc(Cl)cc23)c1C [Compound 186]
assayMetric: pIC50
measuredValue: 3.94
//
compound: CCn1ncc(CN(C)C(=O)c2nc(-c3cc4c(NC)[nH]nc4cc3C)nc3ccc(C4CC4)cc23)c1C [Compound 614]
assayMetric: pIC50
measuredValue: 7.64

###

The entries below are paired with their reported pIC50.
Tested on: 647V cells
Test: High throughput proliferation (HTP) assay
Assay type: cell-based
Conditions: high throughput proliferation, 647V cells; read-out: CREBBP HTP IC50
Source text: The following example describes methods and materials relating to a high throughput proliferation (HTP) assay. IC50 values (micromolar) are summarized in Table 1, Table 2, and Table 3 under the column labeled: “CREBBP HTP IC50 (micromolar).” MATERIALS: 647V cell line, Dulbecco's MEM, penicillin-streptomycin, heat inactivated fetal bovine serum, D-PBS, and CellTiter-Glo were commercially available. […]
pIC50: −log10 of the molar value.
assayMetric: pIC50

molecule: CCn1ncc(CN(C)C(=O)c2nc(-c3cc(C(=O)NC)nn3C)nc3ccc(P(C)(C)=O)cc23)c1C [Compound 393]
measuredValue: 5.07
--
molecule: CCn1ncc(CN(C)C(=O)c2cc(-c3ccc(OCCNC)c(Cl)c3)nc3ccc(P(C)(C)=O)cc23)c1C [Compound 407]
measuredValue: 5.13
--
molecule: CCn1ncc(CN(C)C(=O)c2nc(-c3ccccc3Cl)nc3c(C#N)cccc23)c1C [Compound 211]
measuredValue: 4.82
--
molecule: CCn1ncc(CN(C)C(=O)c2nc(-c3cc(C)cc(NC4CCNC4)c3)cc3ccc(Cl)cc23)c1C (stereo not shown) [Compound 383]
measuredValue: 7.20
